B1: CPEB3 Ribozyme (parent)
chain: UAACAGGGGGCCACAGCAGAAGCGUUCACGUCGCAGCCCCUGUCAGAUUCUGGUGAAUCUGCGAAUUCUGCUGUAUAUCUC

variants of: B1; assay: self-cleavage, relative activity (ratio to wild type); higher = more cleavage; in vitro, sequencing
experimental readout: self-cleavage
Answer with the value's number alone.

Sure, the documented self-cleavage for C37A U41C is 0.25

Sure, the documented self-cleavage for A28C G73U is 0.55

Sure, the documented self-cleavage for U43C C79A is 0.8

Sure, the documented self-cleavage for A47G A57U is 0.29

Sure, the documented self-cleavage for U54G U80C is 0.67

Sure, the documented self-cleavage for G10A A28U is 0.17

Sure, the documented self-cleavage for C38U A47G is 0.66

Sure, the documented self-cleavage for A45U G53C is 0.33
